procedureDetails: CRL1545 cell growth, single agent and combined, cisplatin and BGB IC20 combos (AID 1671464);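 also: cells exposed to compound for 96 hours before readout; 0% = vehicle DMSO and 100% = high DMSO killing control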
testContext: CRL1545 osteosarcoma cells, measured here: with cisplatin IC20 combination, at 0.5 µM, stronger effect = higher value
propertyName: inhibition (%)
Kindly answer with a numeric value in %, unit omitted.

INSERT INTO results (compound, propertyname, reportedmeasurement) VALUES
  ('CC(C=CC(=O)NO)=CC(C)C(=O)c1ccc(N(C)C)cc1 (stereo unspecified)', 'inhibition', 88.7),
  ('Cc1cn(C2CC(O)C(COP(=O)(O)OP(=O)(O)OP(=O)(O)O)O2)c(=O)[nH]c1=O (stereo unspecified)', 'inhibition', 8.61),
  ('C[C@H](NC(=O)c1ccccc1N=Cc1c(O)ccc2ccccc12)c1ccccc1', 'inhibition', -9.19),
  ('Nc1ccn(C2CCC(CO)O2)c(=O)n1 (stereo unspecified)', 'inhibition', -67.7),
  ('O=C(CCCCCCC(=O)Nc1ccc(I)cc1)NO', 'inhibition', 50.7);

Just so you know, measured inhibition for Cn1cc(-c2cnn3c(N)c(Br)c([C@H]4CCCNC4)nc23)cn1 came out at 82.3

compound COc1ccccc1S(=O)(=O)Nc1ccc2c(c1)CN(C)C(=O)N2 , inhibition observed: -21.9

Noted for O=C1N=c2ccccc2=C1c1c(O)[nH]c2ccccc12 : its inhibition reads 11.3

Note to self: inhibition recorded for CCC(C)C(=O)OC1CC(C)C=C2C=CC(C)C(CCC3CC(O)CC(=O)O3)C21 (stereo unspecified) was 0.492

Form: compound = NC(=O)c1cccc2[nH]c(-c3ccc(C4CCCN4)cc3F)nc12 (stereo unspecified) ; inhibition = 5.82

The recorded inhibition for Cc1cc(C)cc(C(=O)NOCCCCCC(=O)NO)c1 is 80.7
